# pIC50 measurements, system: PI3Kα (Homo sapiens, UniProt P42336)
# Sequence (P42336 whole entry, species assumed): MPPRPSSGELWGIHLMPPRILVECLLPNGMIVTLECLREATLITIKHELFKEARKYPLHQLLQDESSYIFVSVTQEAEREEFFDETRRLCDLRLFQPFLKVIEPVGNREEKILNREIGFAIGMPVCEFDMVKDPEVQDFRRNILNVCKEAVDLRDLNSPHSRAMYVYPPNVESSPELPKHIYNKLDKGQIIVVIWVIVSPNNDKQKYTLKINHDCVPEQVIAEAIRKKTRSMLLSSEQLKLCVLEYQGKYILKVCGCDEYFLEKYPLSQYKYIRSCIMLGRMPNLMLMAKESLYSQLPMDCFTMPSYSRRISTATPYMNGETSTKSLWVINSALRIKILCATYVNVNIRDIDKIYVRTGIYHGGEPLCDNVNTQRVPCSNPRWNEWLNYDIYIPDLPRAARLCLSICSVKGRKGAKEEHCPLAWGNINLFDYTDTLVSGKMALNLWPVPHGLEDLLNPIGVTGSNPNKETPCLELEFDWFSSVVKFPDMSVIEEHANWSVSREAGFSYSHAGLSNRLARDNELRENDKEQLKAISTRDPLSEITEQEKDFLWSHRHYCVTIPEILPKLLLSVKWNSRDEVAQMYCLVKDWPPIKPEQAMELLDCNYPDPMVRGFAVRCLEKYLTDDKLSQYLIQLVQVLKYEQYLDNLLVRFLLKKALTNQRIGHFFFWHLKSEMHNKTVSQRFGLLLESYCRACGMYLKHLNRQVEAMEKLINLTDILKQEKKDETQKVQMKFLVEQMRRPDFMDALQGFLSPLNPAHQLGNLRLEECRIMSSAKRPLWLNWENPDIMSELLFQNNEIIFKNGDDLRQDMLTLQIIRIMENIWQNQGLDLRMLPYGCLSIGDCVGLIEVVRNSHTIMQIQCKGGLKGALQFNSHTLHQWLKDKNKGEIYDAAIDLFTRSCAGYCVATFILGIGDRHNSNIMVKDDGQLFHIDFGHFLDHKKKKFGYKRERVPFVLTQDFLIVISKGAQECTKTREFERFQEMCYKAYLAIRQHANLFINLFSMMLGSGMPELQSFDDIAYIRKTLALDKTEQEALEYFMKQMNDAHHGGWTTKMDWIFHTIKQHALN
# Sequence (P27986 whole entry partner, species assumed): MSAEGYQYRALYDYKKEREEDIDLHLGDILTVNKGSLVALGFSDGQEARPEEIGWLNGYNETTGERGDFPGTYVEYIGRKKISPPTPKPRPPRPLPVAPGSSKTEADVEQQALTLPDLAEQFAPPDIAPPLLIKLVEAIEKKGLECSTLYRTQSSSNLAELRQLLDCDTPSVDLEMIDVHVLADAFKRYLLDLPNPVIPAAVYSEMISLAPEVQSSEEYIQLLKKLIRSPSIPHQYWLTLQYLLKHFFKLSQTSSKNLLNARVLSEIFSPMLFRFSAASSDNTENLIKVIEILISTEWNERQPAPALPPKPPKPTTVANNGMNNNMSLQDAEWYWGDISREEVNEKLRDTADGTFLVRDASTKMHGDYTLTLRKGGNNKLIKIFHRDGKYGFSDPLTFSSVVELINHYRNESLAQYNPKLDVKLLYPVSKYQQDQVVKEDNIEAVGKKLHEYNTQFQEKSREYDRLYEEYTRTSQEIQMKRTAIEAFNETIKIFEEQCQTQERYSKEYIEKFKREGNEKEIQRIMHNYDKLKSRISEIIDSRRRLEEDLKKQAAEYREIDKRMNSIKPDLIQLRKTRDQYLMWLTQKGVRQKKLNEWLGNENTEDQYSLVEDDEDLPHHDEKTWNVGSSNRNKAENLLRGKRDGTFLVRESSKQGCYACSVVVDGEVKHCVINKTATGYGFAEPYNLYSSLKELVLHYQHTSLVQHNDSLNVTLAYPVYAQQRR
pIC50: −log10 of the molar value.
measurementKind: pIC50

compound: Cc1nc2ccc(-c3ccc4c(c3)CN(c3ncnc5c3CSC5)CCO4)cc2[nH]1
measurementKind: pIC50
observedMeasurement: 5.70 to 6.00

compound: Cc1nc2ccc(-c3ccc4c(c3)CN(c3ncnc5[nH]ncc35)CCO4)cc2[nH]1
measurementKind: pIC50
observedMeasurement: ≤ 5.70

compound: CC[C@H]1CCc2c(nc(C)nc2N2CCOc3ccc(-c4cnc5nc([C@H](C)NC(=O)OCc6ccccc6)[nH]c5c4)cc3C2)C1
measurementKind: pIC50
observedMeasurement: 5.70 to 6.00

compound: Cc1nc2ccc(-c3ccc4c(c3)CN(c3ccccn3)CCO4)cc2[nH]1
measurementKind: pIC50
observedMeasurement: ≤ 5.70

compound: Cc1nc2cc(-c3ccc4c(c3)CN(c3ccnc5ccccc35)CCO4)ccc2s1
measurementKind: pIC50
observedMeasurement: ≤ 5.70

compound: CSc1nc2c(c(N3CCOc4ccc(-c5ccc6nc(C)[nH]c6c5)cc4C3)n1)CC(C)C2 (stereo not shown)
measurementKind: pIC50
observedMeasurement: 5.70 to 6.00

compound: C[C@H](NC(=O)OCc1ccccc1)c1nc2ncc(-c3ccc4c(c3)CN(c3ncnc5c3CC(C)(C)CC5)CCO4)cc2[nH]1
measurementKind: pIC50
observedMeasurement: ≤ 5.70

compound: COCCOC(=O)Nc1nc2ccc(-c3ccc4c(c3)CN(c3ccnc5ccccc35)CCO4)cc2[nH]1
measurementKind: pIC50
observedMeasurement: 5.70 to 6.00

compound: Cc1nc2ccc(-c3ccc4c(c3)CN(c3cc(C(C)(C)O)nc5c3CC(C)(C)CC5)CCO4)cc2[nH]1
measurementKind: pIC50
observedMeasurement: 6.60 to 7.30

compound: Cc1ncnc(N2CCOc3ccc(-c4ccc(C(=O)N[C@H]5CCNC5)cc4)cc3C2)c1Cc1ccc(F)cc1
measurementKind: pIC50
observedMeasurement: ≤ 5.70

compound: CCn1ccc2cc(-c3ccc4c(c3)CN(c3ccnc5ccccc35)CCO4)cnc21
measurementKind: pIC50
observedMeasurement: ≤ 5.70

compound: COC(=O)Nc1cc(-c2ccc3c(c2)CN(c2ncnc4c2CC(C)(C)CC4)CCO3)cnc1Cl
measurementKind: pIC50
observedMeasurement: ≤ 5.70

compound: COc1ccc(-c2ccc3c(c2)CN(c2nc(CN(C)C)nc4c2CC(C)(C)CC4)CCO3)cc1
measurementKind: pIC50
observedMeasurement: 5.70 to 6.00

compound: Cc1nc2ccc(-c3ccc4c(c3)CN(c3ccnc(N)c3)CCO4)cc2[nH]1
measurementKind: pIC50
observedMeasurement: ≤ 5.70

compound: COc1ccc2c(N3CCOc4ccc(-c5ccc6ncsc6c5)cc4C3)nc(C)nc2c1
measurementKind: pIC50
observedMeasurement: 5.70 to 6.00

compound: Cc1nc2ncc(-c3ccc4c(c3)CN(c3ncnc5c3C(C(F)(F)F)CCC5)CCO4)cc2[nH]1 (stereo not shown)
measurementKind: pIC50
observedMeasurement: 5.70 to 6.00

----------
Listing of entries alongside the reported IC50.
Target: mTOR/GbL/Raptor (mTORC1) (Homo sapiens, UniProt P42345)
Assay: mTOR/GbL/Raptor (mTORC1) ELISA assay
Details: phosphorylation of 4E-BP1; 0.2 nM mTORC1, 10 μM ATP; read-out: IC50 in this assay (mTORC1 ELISA)

compound: CC(=O)Nc1cc(-c2ccc3c(c2)CN(c2ncnc4c2CC(C)(C)CC4)CCO3)cnc1Cl
IC50: 250 to 1000 nM
//
compound: COC(=O)Nc1nc2ncc(-c3ccc4c(c3)CN(c3ccnc5cc(OC)c(OC)cc35)CCO4)cc2[nH]1
IC50: 250 to 1000 nM
//
compound: CCNC(=O)c1ccc(-c2ccc3c(c2)CN(c2ccnc4ccccc24)CCO3)cc1
IC50: 50 to 250 nM
//
compound: CN(C)C(=O)c1cc(-c2ccc3c(c2)CN(c2ncnc4c2CC(C)(C)CC4)CCO3)cnc1N
IC50: 50 to 250 nM
//
compound: CN(C)Cc1nc2c(c(N3CCOc4ccc(-c5cnc(Cl)c(NS(C)(=O)=O)c5)cc4C3)n1)CC(C)(C)CC2
IC50: 50 to 250 nM
//
compound: CN(C)Cc1nc2c(c(N3CCOc4ccc(-c5ccc6scnc6c5)cc4C3)n1)CC(C)(C)CC2
IC50: 250 to 1000 nM
//
compound: CC(C)(O)CNS(=O)(=O)c1cc(-c2ccc3c(c2)CN(c2ncnc4c2CC(C)(C)CC4)CCO3)cnc1N
IC50: ≤ 10 nM
//
compound: CCNc1nc2ccc(-c3ccc4c(c3)CN(c3nc(C)nc5cc(OCC)ccc35)CCO4)cc2[nH]1
IC50: ≥ 2000 nM
//
compound: Cc1nc2ccc(-c3ccc4c(c3)CN(c3ncnc(C)c3Cc3ccc(C(F)(F)F)cc3)CCO4)cc2[nH]1
IC50: 10 to 50 nM
//
compound: CC1(C)CCc2ncnc(N3CCOc4ccc(-c5cnc(N)c(S(=O)(=O)NC[C@H]6C[C@H]7CNC[C@H]7C6)c5)cc4C3)c2C1
IC50: 50 to 250 nM
//
compound: CCc1nc2ncc(-c3ccc4c(c3)CN(c3nc(C)nc5c3CC(C)(C)CC5)CCO4)cc2[nH]1
IC50: ≤ 10 nM
//
compound: CC(C)(O)CC[S+]([O-])c1cc(-c2ccc3c(c2)CN(c2ncnc4c2CC(C)(C)CC4)CCO3)cnc1N (stereo not drawn)
IC50: 50 to 250 nM
//
compound: CN1CCC[C@H](CNS(=O)(=O)c2cc(-c3ccc4c(c3)CN(c3ncnc5c3CC(C)(C)CC5)CCO4)cnc2N)C1
IC50: 50 to 250 nM
//
compound: c1ccc2c(N3CCOc4ccc(-c5ccc6nc(C7CNC7)[nH]c6c5)cc4C3)ccnc2c1
IC50: 1000 to 2000 nM
//
compound: COc1cc2c(N3CCOc4ccc(-c5ccc6nc(C)[nH]c6c5)cc4C3)ncnc2cc1Br
IC50: 250 to 1000 nM

----------
Target: mTOR/GbL/Raptor (mTORC1) (Homo sapiens)
Test: mTOR/GbL/Raptor (mTORC1) ELISA assay
Settings: phosphorylation of 4E-BP1; 0.2 nM mTORC1, 10 μM ATP; read-out: IC50 in this assay (mTORC1 ELISA)
Listing of entries alongside the reported IC50.
measurementKind: IC50

compound: CC1(C)C=Cc2ncnc(N3CCOc4ccc(-c5cnc6nc(C7CC7)[nH]c6c5)cc4C3)c2C1 [Example 545]
systemUnderTest: mTOR/GbL/Raptor (mTORC1) (Homo sapiens)
observedMeasurement: ≤ 10 nM
--
compound: COc1ccc2c(N3CCOc4ccc(-c5ccc(OC)c(OC)c5)cc4C3)nc(CN(C)C)nc2c1 [Example 333]
systemUnderTest: mTOR/GbL/Raptor (mTORC1) (Homo sapiens)
observedMeasurement: ≥ 2000 nM
--
compound: Cc1ncnc(N2CCOc3ccc(-c4ccc5nc(N)cn5c4)cc3C2)c1Cc1ccc(F)cc1 [Example 145]
systemUnderTest: mTOR/GbL/Raptor (mTORC1) (Homo sapiens)
observedMeasurement: 10 to 50 nM
--
compound: Cc1nc2ncc(-c3ccc4c(c3)CN(c3nc(CN(C)C5CC5)nc5c3CC(C)(C)CC5)CCO4)cc2[nH]1 [Example 604]
systemUnderTest: mTOR/GbL/Raptor (mTORC1) (Homo sapiens)
observedMeasurement: 10 to 50 nM
--
compound: COc1ccc2c(N3CCOc4ccc(-c5cnc6sc(NC(C)=O)nc6c5)cc4C3)nc(CN(C)C)nc2c1 [Example 618]
systemUnderTest: mTOR/GbL/Raptor (mTORC1) (Homo sapiens)
observedMeasurement: 250 to 1000 nM
--
compound: COCCOc1cc(-c2ccc3c(c2)CN(c2nc(CN(C)C)nc4c2CC(C)(C)CC4)CCO3)ccc1OC [Example 648]
systemUnderTest: mTOR/GbL/Raptor (mTORC1) (Homo sapiens)
observedMeasurement: 250 to 1000 nM
--
compound: COCCNCc1nc2c(c(N3CCOc4ccc(-c5cnc6nc(C)[nH]c6c5)cc4C3)n1)CC(C)(C)CC2 [Example 590]
systemUnderTest: mTOR/GbL/Raptor (mTORC1) (Homo sapiens)
observedMeasurement: ≤ 10 nM
--
compound: CCNc1nc2ccc(-c3ccc4c(c3)CN(c3nc(C)nc(Nc5ccccc5)c3C)CCO4)cc2[nH]1 [Example 538]
systemUnderTest: mTOR/GbL/Raptor (mTORC1) (Homo sapiens)
observedMeasurement: 50 to 250 nM
--
compound: OCc1ncc(-c2ccc(-c3ccc4c(c3)CN(c3ncnc5cccnc35)CCO4)cc2)[nH]1 [Example 212]
systemUnderTest: mTOR/GbL/Raptor (mTORC1) (Homo sapiens)
observedMeasurement: 250 to 1000 nM
--
compound: CC1(C)CCc2ncnc(N3CCOc4ccc(-c5cnc(N)c(NS(C)(=O)=O)c5)cc4C3)c2C1 [Example 620]
systemUnderTest: mTOR/GbL/Raptor (mTORC1) (Homo sapiens)
observedMeasurement: 50 to 250 nM
--
compound: COc1ccc2c(N3CCOc4ccc(-c5cnc6nc(C)[nH]c6c5)cc4C3)ncnc2c1 [Example 565]
systemUnderTest: mTOR/GbL/Raptor (mTORC1) (Homo sapiens)
observedMeasurement: 50 to 250 nM
--
compound: CC[C@H]1CCc2c(ncnc2N2CCOc3ccc(-c4cnc(N)c(S(=O)(=O)NCC(C)(C)N)c4)cc3C2)C1 [Example 407]
systemUnderTest: mTOR/GbL/Raptor (mTORC1) (Homo sapiens)
observedMeasurement: 10 to 50 nM
--
compound: CCNc1nc2ccc(-c3ccc4c(c3)CN(c3ccnc5ccccc35)CCO4)cc2[nH]1 [Example 208]
systemUnderTest: mTOR/GbL/Raptor (mTORC1) (Homo sapiens)
observedMeasurement: 50 to 250 nM
--
compound: CC1=CC(C)(C)Cc2c1ncnc2N1CCOc2ccc(-c3cnc(N)c(S(=O)(=O)N[C@@H]4CCN(C)C4)c3)cc2C1 [Example 422]
systemUnderTest: mTOR/GbL/Raptor (mTORC1) (Homo sapiens)
observedMeasurement: 50 to 250 nM
--
compound: Cc1nc2ncc(-c3ccc4c(c3)CN(c3ncnc5c3C[C@H](C)[C@@H](C)C5)CCO4)cc2[nH]1 [Example 486]
systemUnderTest: mTOR/GbL/Raptor (mTORC1) (Homo sapiens)
observedMeasurement: ≤ 10 nM

Value source: patent US8648066B2
